# Test system: Plasmodium falciparum chloroquine-susceptible strain D6
# Procedure Details: In vitro antimalarial drug susceptibility assay (radiolabeled hypoxanthine incorporation), strain D6
# Format: cell-based
# Condition Description: Plasmodium falciparum, D6, 66 h, read-out: Strain D6 IC50, growth inhibition, chloroquine-susceptible strain D6, 66 h incubation
Label y when IC50 is strictly below 0.02 µg/mL; otherwise label n.

Solved cases (4 shown):
COC(=O)CCC(C)[C@H]1CCC2C3C(C[C@H](OC(C)=O)[C@@]21C)[C@@]1(C)CCC2(C[C@H]1C[C@H]3OC(C)=O)OOC1(OO2)C(C)CCCC1C (stereo partly shown)	n
CCNC(=O)CCC(C)[C@H]1CCC2C3C(C[C@H](OC(C)=O)[C@@]21C)[C@@]1(C)CCC2(C[C@H]1C[C@H]3OC(C)=O)OOC1(CCC(CC)CC1)OO2 (single isomer, unassigned)	y
CC(=O)O[C@H]1CC2C(C3CC[C@H](C(C)CCC(N)=O)[C@]31C)[C@H](OC(C)=O)C[C@@H]1CC3(CC[C@]21C)OOC1(CCCCC1C)OO3 (stereo partly shown)	y
CCCNC(=O)CCC(C)[C@H]1CCC2C3C(C[C@H](OC(C)=O)[C@@]21C)[C@@]1(C)CCC2(C[C@H]1C[C@H]3OC(C)=O)OOC1(CCCCC1)OO2 (stereo partly shown)	y

# input Please check: IC50 for COC(=O)CCC(C)[C@H]1CCC2C3C(C[C@H](OC(C)=O)[C@@]21C)[C@@]1(C)CCC2(C[C@H]1C[C@H]3OC(C)=O)OOC1(CCCC1)OO2 (stereo partly shown) , strictly under 0.02 µg/mL or not?
# output n

# input Below 0.02 µg/mL on IC50? Entry COC(=O)CCC(C)[C@H]1CCC2C3C(C[C@H](OC(C)=O)[C@@]21C)[C@@]1(C)CCC2(C[C@H]1C[C@H]3OC(C)=O)OOC1(CCCCC1)OO2 (stereo partly shown)
# output y

# input Consider the molecule CC(=O)O[C@H]1CC2C(C3CC[C@H](C(C)CCC(=O)O)[C@]31C)[C@H](OC(C)=O)C[C@@H]1CC3(CC[C@]21C)OOC1(CCCCC1C)OO3 (stereo partly shown) . Is its IC50 strictly less than 0.02 µg/mL?
# output n

* * *

# Test system: Mycobacterium tuberculosis H37Rv (ATCC 27294)
# Procedure Details: Primary screen, Microplate Alamar Blue Assay (MABA), percent inhibition
# Type: cell-based
# Condition Description: Mycobacterium tuberculosis, Table 5; Alamar assay, primary screening at 6.25 μg/ml; read-out: % Inhib
Property: inhibition at 6.25 µg/mL (%)
Lab book: enter the figure in %, no units written.

Known inhibition at 6.25 µg/mL results, listed for orientation:
CNC(=O)CCC(C)[C@H]1CCC2C3C(C[C@H](OC(C)=O)[C@@]21C)[C@@]1(C)CCC2(C[C@H]1C[C@H]3OC(C)=O)OOC1(CCC(c3ccccc3)CC1)OO2 (single isomer, unassigned) [Compound 1C46]	71
CCNC(=O)CCC(C)[C@H]1CCC2C3C(C[C@H](OC(C)=O)[C@@]21C)[C@@]1(C)CCC2(C[C@H]1C[C@H]3OC(C)=O)OOC1(CCC(CC)CC1)OO2 (single isomer, unassigned) [27/1C37]	96
COC(=O)CCC(C)[C@H]1CCC2C3C(C[C@H](OC(C)=O)[C@@]21C)[C@@]1(C)CCC2(C[C@H]1C[C@H]3OC(C)=O)OOC1(CCC(C)CC1)OO2 (mixture of isomers) [8g/1B08a]	29
CC(=O)O[C@H]1CC2C(C3CC[C@H](C(C)CCC(=O)O)[C@]31C)[C@H](OC(C)=O)C[C@@H]1CC3(CC[C@]21C)OOC1(CCC(C)CC1)OO3 (some centres unmarked) [9g/1C17]	21

# evaluate next
# input Quick one: give measured inhibition at 6.25 µg/mL for CC(=O)O[C@H]1CC2C(C3CC[C@H](C(C)CCC(=O)O)[C@]31C)[C@H](OC(C)=O)C[C@@H]1CC3(CC[C@]21C)OOC1(CCC(c2ccccc2)CC1)OO3 (single isomer, unassigned) [Compound 1C44]
# output 94
